The following binders are shown together with reported koff values.
target: T1, ANTIBODY EXPRESSION CONTROL; assay: SPR Biacore, expression control
T1 construct: also called mouse anti-canine antibody (capture reagent of the expression control ELISA)
Kindly provide the numeric value in s⁻¹ only, without the unit symbol.

// solved cases for koff follow
binder="Mu_09E09_VH (SEQ ID NO: 35)_F105A (antibody, V domains shown) VH: DVKLVESGEGLVKPGGSLKLSCAASGFTFSSYAMSWVRQTPEKRLEWVAYISSGGDYIYYADTVKGRFTISRDNARNTLYLQMSSLKSEDTAMYYCTRDPITGTAAYWGQGTLVTVSA VL: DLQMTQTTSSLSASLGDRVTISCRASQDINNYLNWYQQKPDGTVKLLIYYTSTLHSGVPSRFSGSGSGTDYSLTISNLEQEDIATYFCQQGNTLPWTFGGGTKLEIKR" value_type=koff measured_result=4.66e-05
binder="Mu_09E09_VH (SEQ ID NO: 35)_Y50A (antibody, V domains shown) VH: DVKLVESGEGLVKPGGSLKLSCAASGFTFSSYAMSWVRQTPEKRLEWVAAISSGGDYIYYADTVKGRFTISRDNARNTLYLQMSSLKSEDTAMYYCTRDPITGTFAYWGQGTLVTVSA VL: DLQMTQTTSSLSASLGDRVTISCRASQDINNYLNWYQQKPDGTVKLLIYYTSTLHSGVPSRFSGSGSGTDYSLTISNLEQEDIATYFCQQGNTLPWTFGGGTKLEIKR" value_type=koff measured_result=5.4e-05

Query binder follows.
Look up koff for this binder: Mu_02D09_VH (SEQ ID NO: 31)_Y101A (antibody, V domains shown) VH: EVQLVESGGGLVKPGGSLTLSCAASGFTFSDYGMHWLRQAPEKGLEWVAYISSGSRAVFFADTVKGRFTISRDNAKNTLFLQMTSLRSDDTAMYYCARDRADGRGFAYWGQGTLVTVSA VL: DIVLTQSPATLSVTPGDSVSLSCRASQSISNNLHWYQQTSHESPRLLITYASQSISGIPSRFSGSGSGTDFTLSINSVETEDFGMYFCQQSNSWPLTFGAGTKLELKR
4.11e-05

Data provenance is patent US20220177594A1.
